Please provide measured growth for the entries that follow.
test system: TK-10 renal; assay: NCI-60 one-dose screen, 48 h (100 = growth as untreated, 0 = no growth, -100 = all killed); conditions: 10 µM unless noted
Compounds without any hit were thinned out: in the full panel of roughly 83,000, 20% have a hit.
Return type: number; implicit unit %.

Recorded growth of `COc1ccc2c(c1)C(=O)c1c-2c(OCCN(C)C)nc2cc(OC)ccc12` , please. 28.5

Recorded growth of `Cc1cc(NC(=O)Nc2cccc3ccccc23)no1` , please. 146

Recorded growth of `COc1ccc(-n2nnc(C(=O)O)c2-c2cc(OC)c(OC)c(OC)c2)cc1` , please. 93.2

Recorded growth of `Cc1nc(N)[nH]c(=O)c1C` , please. 137

Recorded growth of `CCN1C[C@@H](C)n2c(c(O)c3c(=O)n(Cc4ccc(F)c(Cl)c4)nc(C(=O)NC)c32)C1=O` , please. 31.6

Recorded growth of `N#Cc1c(N2CCOCC2)nc2sc3cc(Cl)ccc3n2c1=N` , please. 160

====

tested on: HT29 colon; experiment: NCI-60 one-dose screen, 48 h (100 = growth as untreated, 0 = no growth, -100 = all killed); settings: 10 µM unless noted
This is part of a sample that, as a whole, favours compounds with a hit. Of some 83,000 tested, about 20% had one in any assay.
Exam item: assign TRUE to entries whose growth is below 60% and FALSE to entries at or above 60%. Note that a value of exactly 60% receives FALSE.

Below 60% on growth? Entry Oc1ccc(Cc2ccc(O)c(C3CC(c4ccc(Cl)cc4)=NN3)c2)cc1C1CC(c2ccc(Cl)cc2)=NN1 (stereo not given) TRUE

Below 60% on growth? Entry O=c1ccn(C2CCCO2)c(=O)[nH]1 (stereo not given) FALSE

Below 60% on growth? Entry `CC[C@@H]1OC(=O)[C@H](C)[C@@H](O[C@H]2C[C@@](C)(OC)[C@@H](O)[C@H](C)O2)[C@H](C)[C@@H](O[C@@H]2O[C@H](C)C[C@H](N(C)C)[C@H]2O)[C@](C)(O)C[C@@H](C)[C@@H]2N[C@@H](COCCOC)O[C@H]([C@H]2C)[C@]1(C)O` FALSE

Below 60% on growth? Entry `COc1ccc(-n2nnc(C(=O)O)c2-c2cc(OC)c(OC)c(OC)c2)cc1` FALSE

====

Please provide measured growth for the entries that follow.
tested on: TK-10 renal; test: NCI-60 one-dose screen, 48 h (100 = growth as untreated, 0 = no growth, -100 = all killed); conditions: 10 µM unless noted
About 83,000 compounds went through this panel and 20% of them were active in at least one assay; those are over-represented in the sample as a whole.
Return type: number; implicit unit %.

Recorded growth of `COc1ccc2nc3cc(Cl)ccc3c(Nc3cc(C(C)C)c(O)cc3C)c2c1` , please. 15.7

Recorded growth of `Cc1c(C(N)=O)sc2nc(SCC(=O)Nc3ccc(Cl)cc3)n(-c3ccccc3)c(=O)c12` , please. 52.8

Recorded growth of `O=C1CN(CO)C(=O)CN1CO` , please. 124

Recorded growth of COc1ccc(C2CC(c3cccc(Nc4ccnc5cc(Cl)ccc45)c3)=NN2C=O)cc1 (stereo unspecified) , please. 41.5

Recorded growth of `Nc1ccc(S(=O)(=O)Nc2ncccn2)cc1` , please. 114

Recorded growth of Oc1ccc(Cc2ccc(O)c(C3CC(c4ccc(Cl)cc4)=NN3)c2)cc1C1CC(c2ccc(Cl)cc2)=NN1 (stereo unspecified) , please. 21

Recorded growth of `Clc1cc(Cl)c(OCC#CI)cc1Cl` , please. 69.8

Recorded growth of `O=C1Nc2ccc(F)cc2/C1=C/c1nc(-c2ccc(F)cc2)n2ccccc12` , please. 120

Recorded growth of `O=C(Nc1ccc(C2=NCCCN2)cc1)Nc1ccc(C2=NCCCN2)cc1` , please. 109

Recorded growth of CC1=C(C(=O)Nc2ccccc2)C(c2ccc3c(c2)OCCO3)NC(=O)N1 (stereo unspecified) , please. 133

Recorded growth of `c1ccc(-n2nnnc2-c2cccc3ccccc23)cc1` , please. 13.8

====

tested on: SW-620 colon; test: NCI-60 one-dose screen, 48 h (100 = growth as untreated, 0 = no growth, -100 = all killed); settings: 10 µM unless noted
This is part of a sample that, as a whole, favours compounds with a hit. Of some 83,000 tested, about 20% had one in any assay.
Quantity Kind: growth (%)
Return type: number; implicit unit %.

Recorded growth of `c1ccc2cc(C[n+]3ccn(CCCCCCCn4cc[n+](Cc5ccc6ccccc6c5)c4)c3)ccc2c1` , please. 74.2

Recorded growth of `Fc1ccc([C@@H]2CCNC[C@H]2COc2ccc3c(c2)OCO3)cc1` , please. 98.4

Recorded growth of `CCCCCCCCSc1ncnc2c1ncn2CO` , please. 93.8

Recorded growth of `S=C(c1ccccc1)N1CCN(c2cccc(Cl)c2)CC1` , please. 98.5

Recorded growth of C[C@@H]1CC[C@H]2[C@@H](C)C(O)O[C@@H]3O[C@]4(C)CC[C@@H]1[C@]32OO4 (stereo partly specified) , please. 17.5

Recorded growth of `C[n+]1c2ccccc2c(NC2CCNCC2)c2[nH]c3ccccc3c21` , please. 16.1

Recorded growth of `COc1ccc2nc3cc(Cl)ccc3c(Nc3cc(C(C)C)c(O)cc3C)c2c1` , please. 21.8

Recorded growth of `O=C1NC(=O)/C(=C\c2ccccc2)C2=C1CCCC2` , please. -50.2

Recorded growth of `Cc1c(C(N)=O)sc2ncn(CC(=O)Nc3ccc(Cl)cc3)c(=O)c12` , please. 106

Recorded growth of `C/C(=N/N=C(N)N)c1ccc(Cl)cc1` , please. 112

Recorded growth of `CCc1ccc(CCN2C(=O)c3ccccc3C2=O)nc1` , please. 107

====

Test system: 786-0 renal
Experiment: NCI-60 one-dose screen, 48 h (100 = growth as untreated, 0 = no growth, -100 = all killed)
Details: 10 µM unless noted
Description: Cells are grown in 96 well plates and exposed to the test compound for 48 hours. Compounds are tested at a single concentration, which is 10^-5 M for most compounds. The reported endpoint is percent growth (GI% or GIPRCNT), where numbers from 0 - 100% represent growth inhibition, and numbers from -100% - 0 represent cell death. For example, a value of 40 represents 60% growth inhibition. A value of 0 means no net growth occurred over the course of the experiment. […]
This is part of a sample that, as a whole, favours compounds with a hit. Of some 83,000 tested, about 20% had one in any assay.
Quantity Kind: growth (%)
Return type: number; implicit unit %.

Recorded growth of `O=C(Nc1ccc(Cl)cc1Cl)Nc1ccc(-c2cccnc2)cc1N1CCC(CO)CC1` , please. 52.3

Recorded growth of `COc1ccc2c3c(c(OCCCN(C)C)nc2c1)-c1ccc(Cl)cc1C3=O` , please. -40.3

Recorded growth of `O[C@@H]1Cc2ccc3ccccc3c2N[C@H](c2ccoc2)C1` , please. 108

Recorded growth of `COc1ccc(Cn2cc3c(c2-c2ccccc2)CCc2cncnc2-3)cc1` , please. 57.3

Recorded growth of COc1ccc(-c2nn(-c3cccc(Cl)c3)cc2C2CC(c3ccccc3)=NN2C(C)=O)cc1 (stereo not drawn) , please. 72.2

Recorded growth of `CCOC(=O)/C=C(/C)Sc1cc(O)c2ccccc2c1O` , please. 159

Recorded growth of `COc1ccc2[nH]cc(/C=C3/C(=O)Nc4ccc(F)cc43)c2c1` , please. 115

Recorded growth of OC(c1cc(C(F)(F)F)nc2c(C(F)(F)F)cccc12)C1CCCCN1 (stereo not drawn) , please. 56.7

Recorded growth of `Cc1cc(C)c(OC(=O)CSc2nc3ccccc3c(=O)n2CCc2ccccc2)cc1C` , please. 105

Recorded growth of `CCCCCCCCCCCCCCCCCc1nccn1CCO` , please. 62.3

Recorded growth of `Cc1ccc2c(c1)O/C(=C\c1ccc([N+](=O)[O-])o1)C2=O` , please. 5.37

Recorded growth of `CCc1ccc(CCN2C(=O)c3ccccc3C2=O)nc1` , please. 106

Recorded growth of O=C1C2C3C=CC(O3)C2C(=O)N1Nc1ccccc1 (stereo not drawn) , please. 107

Recorded growth of `O=C1CC(C(F)(F)F)=NN1C(=O)c1nn(-c2ccc(Cl)cc2)cc1O` , please. 97.7

Recorded growth of `O=C1Cc2cc(CCN3CCN(CCOCCO)CC3)c(Cl)cc2N1Cc1ccc(-c2ccccc2-c2nn[nH]n2)cc1` , please. 86.8

Recorded growth of `CC(=O)Nc1ccc2c(c1)Cc1c(F)c(F)c(F)c(F)c1-2` , please. 75.3

Recorded growth of `Cn1cc(-c2nc(-c3c[nH]c4ncc(F)cc34)cs2)c2cccnc21` , please. 94.4

Recorded growth of CC(C)(C)c1ccc(C(O)CCCN2CCC(C(O)(c3ccccc3)c3ccccc3)CC2)cc1 (stereo not drawn) , please. -97.4

Recorded growth of `CCN1CCN(c2cc(-c3cn[nH]c3-c3cc(C)cc(OC)c3)nc(-c3cccnc3)n2)CC1` , please. 58.1

Recorded growth of `Cc1c(C(N)=O)sc2c1c(=O)n(Cc1ccccc1)c1nnc(S(=O)(=O)CC(=O)Nc3ccc(Cl)cc3)n21` , please. 3.47

Recorded growth of `CCOC(Cc1c(N)[nH]c(=S)[nH]c1=O)OCC` , please. 109

Recorded growth of `Cc1ccc(C=C2C(Cl)=C(Cl)C(Cl)=C2Cl)cc1` , please. -86.8

Recorded growth of `COc1ccc(-n2nnc(C(=O)O)c2-c2cc(OC)c(OC)c(OC)c2)cc1` , please. 99.7

Recorded growth of `COc1cc2c(-c3nc4cc(Cl)c(F)cc4s3)cc(=O)oc2c(C)c1OC` , please. -70.2

Recorded growth of `Cn1[nH]cc(/C=N/C(N)=O)c1=O` , please. 99.8

Recorded growth of `CC(C)[C@H]1CC[C@H]2[C@@H](CC[C@H]3[C@](C)(CN)CCC[C@]23C)C1` , please. 72.9

Recorded growth of CC(=O)Oc1ccc(C2OC(c3ccc4ccccc4c3OC(C)=O)=NN2C(C)=O)c(OC(C)=O)c1 (stereo not drawn) , please. 5.71

Recorded growth of `COc1ccc(-c2nc3sccn3c2-c2ccnc(S(C)(=O)=O)n2)cc1` , please. 99.1

Recorded growth of `COc1ccc(COC(C)=O)cc1` , please. 99.4

Recorded growth of `NCCCc1nnc(CCC(=O)c2nc3ccccc3[nH]2)o1` , please. 103

Recorded growth of `COc1ccc(-c2c(-c3cc(OC)c(OC)c(OC)c3)noc2N)cc1` , please. 20

Recorded growth of `O=C1NCN(CCO)CN1` , please. 90.4

Recorded growth of `Cc1c(C(N)=O)sc2c1C(=O)N(Cc1ccccc1)C1=NN=C(c3ccc(Cl)cc3)CN12` , please. 43

Recorded growth of CC1SC(c2c(Cl)cccc2Cl)N(NC(=O)c2[nH]c3ccc(F)cc3c2-c2ccccc2)C1=O (stereo not drawn) , please. 33.8

Recorded growth of `CCC(CC)NCCCCCNc1cc(OC)cc2cccnc12` , please. 95

Recorded growth of COc1cc2c(c(OC)c1OC)-c1ccc(NN(C(=O)c3ccccc3)C(=O)c3ccccc3)c(=O)cc1[C@@H](NC(C)=O)CC2 (tested in a mixture with another compound) , please. 31.4

Recorded growth of `O=C(Nc1ccc(Cl)cc1)Nc1ccc(Nc2nncc3ccccc23)cc1` , please. 50.4

Recorded growth of `COc1ccc(-c2c3c(nn2-c2ccc(N)cc2)CCc2cnoc2-3)cc1OC` , please. 84.9

Recorded growth of O=C1Nc2ccccc2C12Nc1cc(Cl)ccc1S2 (stereo not drawn) , please. 98.4

Recorded growth of `O=C1c2ccccc2C(=O)c2c1cccc2-n1nnc2ccccc21` , please. 106

Recorded growth of `NC(=O)c1ccccc1NC(=O)c1ccccc1Cl` , please. 102

Recorded growth of `ClC1=C(Cl)C(Cl)=C(Cl)C1=C/C=C/c1ccccc1` , please. -71.3

Recorded growth of `O=C1/C(=C/c2ccc([N+](=O)[O-])o2)Oc2ccc(Br)cc21` , please. 28.3
